Reference for the values: patent US12071411B2

- Subject of test: HIF-2α (Homo sapiens, UniProt Q99814)
- Sequence (Q99814 whole entry): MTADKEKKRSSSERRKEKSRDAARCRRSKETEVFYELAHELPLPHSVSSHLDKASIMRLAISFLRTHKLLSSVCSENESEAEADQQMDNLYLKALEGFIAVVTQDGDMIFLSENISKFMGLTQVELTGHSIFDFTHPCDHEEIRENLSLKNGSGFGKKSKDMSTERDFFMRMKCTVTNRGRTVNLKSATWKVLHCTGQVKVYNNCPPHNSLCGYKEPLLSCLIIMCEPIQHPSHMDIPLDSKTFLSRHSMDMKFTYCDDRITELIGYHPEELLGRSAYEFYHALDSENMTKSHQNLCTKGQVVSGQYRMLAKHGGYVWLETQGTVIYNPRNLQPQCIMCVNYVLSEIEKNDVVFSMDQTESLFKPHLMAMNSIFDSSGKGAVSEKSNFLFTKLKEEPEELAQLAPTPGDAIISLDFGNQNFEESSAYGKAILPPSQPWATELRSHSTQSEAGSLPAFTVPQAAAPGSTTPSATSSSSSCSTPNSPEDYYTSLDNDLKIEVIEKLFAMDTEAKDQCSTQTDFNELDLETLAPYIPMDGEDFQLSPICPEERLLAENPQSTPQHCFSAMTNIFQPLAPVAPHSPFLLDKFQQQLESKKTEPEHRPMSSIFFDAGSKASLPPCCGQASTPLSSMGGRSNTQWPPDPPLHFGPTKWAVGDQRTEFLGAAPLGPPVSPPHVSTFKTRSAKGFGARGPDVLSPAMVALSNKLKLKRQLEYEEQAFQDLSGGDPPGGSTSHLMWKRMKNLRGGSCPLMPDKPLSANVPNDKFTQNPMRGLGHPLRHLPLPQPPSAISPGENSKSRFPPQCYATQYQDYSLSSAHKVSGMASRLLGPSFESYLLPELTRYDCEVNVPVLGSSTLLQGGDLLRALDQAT
- Protocol details: HIF-2α Luciferase Reporter Assay (serum), HRE-luciferase 786-0 cells in 100% human serum
- Assay type: cell-based
- Particulars: ratio of IC50 in 100% serum to IC50 in serum free conditions; approximate
Reported metric: Serum Shift (approximate)

Structure smiles string	Result value
O[C@H]1c2c(C(F)(F)F)nn(CCC3(F)COC3)c2CCC1(F)F	3
O[C@H]1c2c(C(F)(F)F)nn(-c3ccc(F)c(F)c3)c2CC1(F)F	45
O[C@H]1c2c(C(F)(F)F)nn([C@@H]3CCC[C@@H](C(F)(F)F)C3)c2CC1(F)F	>41
